Recorded values, source patent US10342818B2.

Protein target, amino acids: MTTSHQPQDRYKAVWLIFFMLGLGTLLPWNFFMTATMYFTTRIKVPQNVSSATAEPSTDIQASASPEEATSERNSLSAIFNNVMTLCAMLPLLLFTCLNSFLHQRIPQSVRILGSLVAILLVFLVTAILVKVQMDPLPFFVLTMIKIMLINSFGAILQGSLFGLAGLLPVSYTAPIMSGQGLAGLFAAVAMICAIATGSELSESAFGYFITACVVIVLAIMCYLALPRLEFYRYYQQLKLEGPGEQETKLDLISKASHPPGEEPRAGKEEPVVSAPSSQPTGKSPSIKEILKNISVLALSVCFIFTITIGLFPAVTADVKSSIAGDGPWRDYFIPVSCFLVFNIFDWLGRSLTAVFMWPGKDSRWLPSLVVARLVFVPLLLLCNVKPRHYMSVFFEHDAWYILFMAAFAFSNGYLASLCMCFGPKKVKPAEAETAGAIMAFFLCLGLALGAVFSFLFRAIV
MEASUREMENT LABEL: Ki (nM)

{"COMPOUND": "OC[C@H]1O[C@@H](n2cnc3c(NCc4ccc(O)cc4)ncnc32)[C@H](O)[C@@H]1O [Compound 1, N^6-(4-Hydroxybenzyl)adenosine]", "Ki (nM)": 538}

P. O=[N+]([O-])c1ccc(CSc2ncnc3c2ncn3[C@@H]2O[C@H](CO)[C@@H](O)[C@H]2O)cc1 [NBTI, S-(4-nitrobenzyl)-6-thioinosine, reference compound]
Q. COc1ccc(CNc2ncnc3c2ncn3[C@@H]2O[C@H](CNC(C)=O)[C@@H](O)[C@H]2O)cc1
Q: // max by Ki over [ P , Q ] Give the label of your selection.
A: Q
(Q: 1430 nM, P: 0.29 nM)

1. CCCCc1cn(C[C@H]2O[C@@H](n3cnc4c(NCc5ccc(OC)cc5)ncnc43)[C@H](O)[C@@H]2O)nn1
2. COc1ccc(CNc2ncnc3c2ncn3[C@@H]2O[C@H](Cn3cc(C)nn3)[C@@H](O)[C@H]2O)cc1
3. COc1ccc(CNc2ncnc3c2ncn3[C@@H]2O[C@H](CCl)[C@@H](O)[C@H]2O)cc1
4. COc1ccc(CNc2ncnc3c2ncn3[C@@H]2O[C@H](Cn3cc(Cc4ccccc4)nn3)[C@@H](O)[C@H]2O)cc1
Q: Order the records so the highest Ki appears first and the lowest last. Rank the items, then write their labels in that order.
A: 3, 2, 1, 4
(3: 2980 nM, 2: 960 nM, 1: 511 nM, 4: 116 nM)

====

SYSTEM UNDER TEST: human A2A receptor (Homo sapiens, UniProt P29274)
Sequence (P29274 whole entry): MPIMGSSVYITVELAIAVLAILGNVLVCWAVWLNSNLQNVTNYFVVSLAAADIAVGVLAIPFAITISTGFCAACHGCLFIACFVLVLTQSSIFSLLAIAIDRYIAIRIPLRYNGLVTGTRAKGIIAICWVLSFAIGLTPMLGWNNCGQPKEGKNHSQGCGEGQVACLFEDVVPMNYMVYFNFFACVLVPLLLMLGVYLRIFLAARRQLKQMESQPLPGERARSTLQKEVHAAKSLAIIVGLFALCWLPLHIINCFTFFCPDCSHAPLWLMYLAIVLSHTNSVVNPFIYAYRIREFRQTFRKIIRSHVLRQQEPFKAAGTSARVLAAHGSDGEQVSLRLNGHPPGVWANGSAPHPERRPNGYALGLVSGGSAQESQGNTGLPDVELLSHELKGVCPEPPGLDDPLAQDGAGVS
ASSAY INFO: Radioligand binding assay of the A2A receptor (3H-CGS21680, MDS Pharma Services)
CONDITION DESCRIPTION: read-out: Ki A2A-R; human adenosine A2A receptor, HEK293 membranes, 3H-CGS21680 50 nM
MEASUREMENT LABEL: pKi
# pKi = -log10(concentration in molar units)

Q: Consider the compound OC[C@H]1O[C@@H](n2cnc3c(NCc4ccc(O)cc4)ncnc32)[C@H](O)[C@@H]1O [Compound 1, N^6-(4-Hydroxybenzyl)adenosine] and give its recorded pKi.
A: 5.58

====

# maps each entry to its melting point

Worked cases, melting point given:
{"COMPOUND": "COc1ccc(CNc2ncnc3c2ncn3C2OC(c3nnn[nH]3)C(O)C2O)cc1 (stereo not shown) [Compound 16]", "melting point": "210 to 210.6 °C"}
{"COMPOUND": "CCNC(=O)C1OC(n2cnc3c(NCc4ccc(O)cc4)ncnc32)C(O)C1O (stereo not shown) [Compound 15]", "melting point": "179.7 to 180.5 °C"}
{"COMPOUND": "COc1ccc(CNc2ncnc3c2ncn3[C@@H]2O[C@H](CNC(C)=O)[C@@H](O)[C@H]2O)cc1 [Compound 9]", "melting point": "121.1 to 121.6 °C"}

Q: Consider the compound COc1ccc(CNc2ncnc3c2ncn3[C@@H]2O[C@H](Cn3cc(C)nn3)[C@@H](O)[C@H]2O)cc1 [Compound 11] and give its recorded melting point.
A: 183 to 183.2 °C
